Values compiled from ChEMBL document CHEMBL4765484.

- Protocol: Oral bioavailability in CD1 mouse at 1 mg/kg after 24 hrs by HPLC-MS/MS analysis
- Format: ADME, organism-based
- Test Context: in vivo
Parameter: bioavailability (%)

Mol	bioavailability [%]
CC1(C)C(=O)c2ccc(-c3cnc(N4CCN5C(=O)NC[C@@H]5C4)nc3)cc2N1Cc1cccnc1C#N	50.4

a = C[C@@H]1CN(c2ncc(-c3ccc4c(c3)N(Cc3cccnc3C#N)C(C)(C)C4=O)cn2)CCN1C(=O)CO
b = C[C@@H]1CN(c2ncc(-c3ccc4c(c3)N(Cc3ccccc3OC(F)F)C(C)(C)C4=O)cn2)CCN1C(=O)CO
query: Endpoint returns whichever of a and b has the numerically higher bioavailability. Output the label that corresponds to your choice.
result: b
(b: 75.4%, a: 50.8%)
